Where do these numbers come from? They come from patent US20240294914A1.

tested on: HBV genome in HEK293T cells transduced with a lentiviral vector; assay: Base editing efficiency in Hek293-lentiHBV system (PCR amplicons sequenced on MiSeq); assay type: cell-based, Hepatitis B virus; design: concentration or dose not given beside the values; conditions: replicate 2, base editor Cas12b-ABE, plasmid transfection, four days
Strand notation (5' to 3'): a small letter for the sugar, then the base; units joined by * are phosphorothioate-linked, units joined directly phosphodiester-linked; [ ] holds rarer units or linkages, { } end groups; capitals alone tell only the bases. m = 2'-O-methyl; r = 2'-OH (RNA)
quantityName: Editing Efficiency 2 (%)
Answer with the value and then the unit.

Examples with answers:
# molecule, Editing Efficiency 2 (%)
rows = [
    ("cas12b-100: guide RNA SEQ ID NO: 385 (nucleic acid) guide: mG*mU*mU*rCrUrGrUrCrUrUrUrUrGrGrUrCrArGrGrArCrArArCrCrGrUrCrUrArGrCrUrArUrArArGrUrGrCrUrGrCrArGrGrGrUrGrUrGrArGrArArArCrUrCrCrUrArUrUrGrCrUrGrGrArCrGrArUrGrUrCrUrCrUrUrArCrGrArGrGrCrArUrUrArGrCrArCrUrUrCrUrUrCrUrArGrGrGrGrArCrCrUrGrCrCrU", "4.21%"),
    ("cas12b-122b: guide RNA SEQ ID NO: 391 (nucleic acid, sugars from the 5' end m3 r114, linkages s3 o113 (s phosphorothioate, o phosphodiester), T or U not given here) guide: GTTCTGTCTTTTGGTCAGGACAACCGTCTAGCTATAAGTGCTGCAGGGTGTGAGAAACTCCTATTGCTGGACGATGTCTCTTACGAGGCATTAGCACCACGCACGCGCTGATGGCCC", "3.91%"),
    ("cas12b-30: guide RNA SEQ ID NO: 383 (nucleic acid) guide: mG*mU*mU*rCrUrGrUrCrUrUrUrUrGrGrUrCrArGrGrArCrArArCrCrGrUrCrUrArGrCrUrArUrArArGrUrGrCrUrGrCrArGrGrGrUrGrUrGrArGrArArArCrUrCrCrUrArUrUrGrCrUrGrGrArCrGrArUrGrUrCrUrCrUrUrArCrGrArGrGrCrArUrUrArGrCrArCrGrCrUrGrArCrGrCrArArCrCrCrCrCrArCrUrGrG", "0.02%"),
    ("cas12b-5: guide RNA SEQ ID NO: 380 (nucleic acid) guide: mG*mU*mU*rCrUrGrUrCrUrUrUrUrGrGrUrCrArGrGrArCrArArCrCrGrUrCrUrArGrCrUrArUrArArGrUrGrCrUrGrCrArGrGrGrUrGrUrGrArGrArArArCrUrCrCrUrArUrUrGrCrUrGrGrArCrGrArUrGrUrCrUrCrUrUrArCrGrArGrGrCrArUrUrArGrCrArCrUrCrGrCrUrGrGrArUrGrUrGrUrCrUrGrCrGrGrC", "0.36%"),
]

Okay, now this molecule:
Task: Reported Editing Efficiency 2 (%), molecule cas12b-127: guide RNA SEQ ID NO: 390 (nucleic acid) guide: mG*mU*mU*rCrUrGrUrCrUrUrUrUrGrGrUrCrArGrGrArCrArArCrCrGrUrCrUrArGrCrUrArUrArArGrUrGrCrUrGrCrArGrGrGrUrGrUrGrArGrArArArCrUrCrCrUrArUrUrGrCrUrGrGrArCrGrArUrGrUrCrUrCrUrUrArCrGrArGrGrCrArUrUrArGrCrArCrArCrArCrArGrArArArGrGrCrCrUrUrGrUrArArG : ____
Result: 37.40%
